# System: KM12 colon
# measurementProtocol: NCI-60 one-dose screen, 48 h (100 = growth as untreated, 0 = no growth, -100 = all killed)
# assayContext: 10 µM unless noted
This is part of a sample that, as a whole, favours compounds with a hit. Of some 83,000 tested, about 20% had one in any assay.
observedProperty: growth (%)

compound	quantitativeReadout
c1ccc(C(c2nc3ncncc3[nH]2)N2CSc3nc4ccccc4n3C2)cc1 (stereo unspecified)	94.4
N#Cc1c(NC(=O)c2cccc(C(F)(F)F)c2F)sc2c1CCC(=O)C2	-42.7
O=C(Nc1ccc(Br)cc1)Nc1nc2ccc([N+](=O)[O-])cc2s1	0.616
NC(N)=Nc1ccc(Oc2ccc(Nc3ccc(Cl)c(C(F)(F)F)c3)cc2)cc1	5.94
CNCc1cccc2c1OCCCCCCC(C)(O)CC(C)(C)S(=O)(=O)c1ccc(cc1)-c1cnc(N)c(n1)C(=O)N2 (stereo unspecified)	-68.1
C#Cc1ccc(C(=O)NCc2ccc(/C=C/C(=O)c3nccn3C)cc2)cc1	15.5

---

Each entry below carries its reported growth.
# System: NCI-H322M lung
# measurementProtocol: NCI-60 one-dose screen, 48 h (100 = growth as untreated, 0 = no growth, -100 = all killed)
# assayContext: 10 µM unless noted
The panel holds about 83,000 compounds, 20% with a hit somewhere; the sample as a whole holds those more often.

molecule	assayTarget	growth (%)
COc1ccc(Cn2cc3c(c2-c2cc(OC)c(OC)c(OC)c2)CCc2c(CN4CCOCC4)noc2-3)cc1	NCI-H322M lung	52.7
O=C(/C=C/c1ccc(F)cc1)c1ccc(O)cc1	NCI-H322M lung	121
CN1CCN(Cc2ccc(NC(=O)c3cncc(C#Cc4cnc5ccc(OCC6(C)COC6)nn45)c3)cc2C(F)(F)F)CC1	NCI-H322M lung	-81.2
O=C(CSc1nc2ccccc2c(=O)n1-c1ccccc1)Nc1cccc(C(=O)/C=C/c2ccccc2)c1	NCI-H322M lung	102
Cn1cc(-c2nc(N)nnc2-c2c[nH]c3ccccc23)c2cc(Br)ccc21	NCI-H322M lung	41.9
O=C(Nc1ccc2c(ccn2Cc2ccccn2)c1)c1ccnnc1	NCI-H322M lung	98.5
O=C1Nc2ccccc2/C1=C/c1ccc(COCC2CO2)n1-c1ccc(O)cc1 (stereo not drawn)	NCI-H322M lung	107
Nc1ncc(-c2ccc3ncnc(N4CCc5cc(F)c(F)cc54)c3c2)cn1	NCI-H322M lung	33.1

---

# Tested on: MCF7 breast
# measurementProtocol: NCI-60 one-dose screen, 48 h
# assayContext: 10 µM unless noted
About 83,000 compounds went through this panel and 20% of them were active in at least one assay; those are over-represented in the sample as a whole. The source made the active and inactive calls. How the source made its calls: active means growth percent below 10; inactive means the rest.
Possible outcomes: active, inactive

compound	classification
CCC1=Cc2cc(OC)ccc2OC12C=Cc1cc(OC)ccc1O2 (stereo not drawn)	inactive
Cn1ccnc1C(=O)/C=C/c1ccc(CNC(=O)c2ccc(S(F)(F)(F)(F)F)cc2)cc1	inactive
CC1(C)CC[C@]2(C(=O)N3CCOCC3)CC[C@]3(C)C(=CC[C@@H]4[C@@]5(C)C/C(=C/c6ccco6)C(=O)C(C)(C)[C@@H]5CC[C@]43C)[C@@H]2C1	inactive
Cc1ccc(-c2cc3nc(C(Cl)Cl)nc(-c4ccco4)n3n2)cc1	active
O=S(=O)(NCCCNc1nccc(-c2[nH]c(-c3ccccc3)nc2-c2ccc(Cl)c(O)c2)n1)c1ccc(Br)cc1	inactive
CC1(COc2ccc3ncc(C#Cc4cncc(C(=O)Nc5cccc(C(F)(F)F)c5)c4)n3n2)COC1	inactive
Fc1ccc(-c2cc3nc(C(Cl)Cl)nc(-c4ccco4)n3n2)cc1	active
COc1ccc2c(c1)c(-c1cc(N)n3nc(-c4cn(C)c5ccc(OC)cc45)cc3n1)cn2C	inactive
CCCCCc1ccc(S(=O)(=O)Nc2cccc(-c3csc(NC(=O)CCCCCN4CCN(C)CC4)n3)c2)cc1	active
COc1cccc(N2CCN(c3ncnc4c3[nH]c3ccc(F)cc34)C[C@H]2C)c1	inactive
Oc1cccc2ccc(-c3nnc(SCc4ccc(O)c5ncccc45)o3)nc12	active
N#Cc1c(-c2cccs2)cc(-c2cnccn2)nc1SCC(=O)Nc1ccc(Br)cc1	inactive
NS(=O)(=O)c1ccc(-n2cc(-c3cccc(NC(=O)c4ccc(N5CCOCC5)c(C(F)(F)F)c4)c3)nn2)cc1	inactive

---

# Tested on: TK-10 renal
# measurementProtocol: NCI-60 one-dose screen, 48 h (100 = growth as untreated, 0 = no growth, -100 = all killed)
# assayContext: 10 µM unless noted
About 83,000 compounds went through this panel and 20% of them were active in at least one assay; those are over-represented in the sample as a whole.
Each entry below carries its reported growth.
observedProperty: growth (%)

compound	quantitativeReadout
Nc1nc(N)c2c(n1)NC(c1ccc(Cl)cc1)CC(c1ccc(Nc3nc(NCCO)nc(N4CCOCC4)n3)cc1)=N2 (stereo not drawn)	103
Cc1[nH]c(C(=O)Nc2ccccc2OCc2cccc(C(=O)N3CCC[C@@H](N)C3)c2)c(Cl)c1Cl	-90.2
O=C(CSc1nnc(-c2ccc(Cl)cc2)n1-c1ccccc1)Nc1ccc(Br)cc1	-55.7
CC(C)(C)c1ccc(-c2nnc(-c3nc4ccccc4nc3Cl)o2)cc1	107
COc1ccc(-n2c(SCc3nnc(NC(=O)c4ccc(Br)cc4)s3)nc3cc(OC)c(OC)cc3c2=O)cc1	118
COc1c(N2CC3CCCNC3C2)c(F)cc2c(=O)c(C(=O)N/N=C/c3ccc(N(C)C)cc3)cn(C3CC3)c12 (stereo not drawn)	122
COc1ccc2c(c1)c(CC(=O)[Se]CC(=O)O)c(C)n2C(=O)c1ccc(Cl)cc1	104
NS(=O)(=O)c1ccc(Nc2nc(N/N=C/c3ccc(Cl)cc3)nc(Nc3ccccc3)n2)cc1	103
C[C@@H](Nc1ncnc2ccc(-c3cnc(Cl)c(NS(C)(=O)=O)c3)cc12)c1ccccc1	3.2
COc1cc2nc(Cl)nc(Nc3cccc(C4=Nc5c(N)nc(N)nc5NC(c5ccc(Br)cc5)C4)c3)c2cc1OC (stereo not drawn)	114
N#Cc1cccc(/C(N)=N/C(N)=N/c2nc3ccccc3s2)c1	81.3
Cc1ccc(CSc2nc(-c3ccc(Cl)cc3)c(C#N)c(N3CCOCC3)n2)cc1	105
O=C(O)c1ccc(-n2cc(CNc3cccc(Cl)c3)c(-c3ccc(F)cc3)n2)cc1	127
C#Cc1nc(C(C)=O)cs1	104
NC(=O)c1c(NC(=O)c2ccc(F)cc2F)sc2c1CCC(=O)C2	61.9
COc1cc(-c2nc3sccn3c2-c2ccnc(S(C)(=O)=O)n2)ccc1F	120
CC(=O)c1ccc(Nc2nc(SCC(C)C)nc(-c3ccc(F)cc3)c2C#N)cc1	123
CC1(C)CC[C@]2(C(=O)N3CCOCC3)CC[C@]3(C)C(=CC[C@@H]4[C@@]5(C)C/C(=C/c6ccccn6)C(=O)C(C)(C)[C@@H]5CC[C@]43C)[C@@H]2C1	70.2
COc1cc(C2N=C(NNc3ccccc3)NC(C)=C2C(C)=O)ccc1O (stereo not drawn)	149
C#Cc1ccc(C(=O)NCc2ccc(/C=C/C(=O)c3nccn3C)cc2)cc1	45.1
CCCSc1nc(Nc2ccc(/C(C)=N\NC(N)=S)cc2)c(C#N)c(-c2ccccc2)n1	95
COc1cc(OC)cc(C(=O)Nc2sc3c(c2C(N)=O)CCC(=O)C3)c1	66.5
Nc1ccccc1NC(=O)c1ccc(NC(=O)C/C=C/c2cccnc2)cc1	28.9

---

Each entry below carries its reported growth.
# System: TK-10 renal
# measurementProtocol: NCI-60 one-dose screen, 48 h (100 = growth as untreated, 0 = no growth, -100 = all killed)
# assayContext: 10 µM unless noted
The panel holds about 83,000 compounds, 20% with a hit somewhere; the sample as a whole holds those more often.
observedProperty: growth (%)

compound	assayTarget	observedProperty	unitText	quantitativeReadout
CS(=O)(=O)Nc1cc(-c2ccc3ncc(C#N)c(NCc4ccccc4)c3c2)cnc1Cl	TK-10 renal	growth	%	-25.2
O=C(CN1CCN(c2cc(=O)n(-c3ccccc3)c3ccccc23)CC1)Nc1nc(-c2ccccc2)cs1	TK-10 renal	growth	%	97.7
COc1ccc(N2CCN(C3=C(Cl)C(=O)C(C)=C(C)C3=O)CC2)cc1	TK-10 renal	growth	%	123
CCNC(=O)N1CCc2cc(OC)c(OCCc3ccc(OC)cc3)cc2C1c1ccc(OC)cc1C (stereo not drawn)	TK-10 renal	growth	%	38.1
N#Cc1c(-c2cccs2)cc(-c2cnccn2)nc1SCC(=O)c1ccc(F)cc1	TK-10 renal	growth	%	89.3
O=C(CSc1nc2ccccc2c(=O)n1-c1ccc(Cl)cc1)N/N=C/c1ccc(N2CCCCC2)cc1	TK-10 renal	growth	%	103
NC(N)=Nc1ccc(Oc2cccc(Nc3ccc(Br)c(C(F)(F)F)c3)c2)cn1	TK-10 renal	growth	%	7.85
CCNC(=O)N1CCc2cc(OC)c(OCCc3ccc(OC)nc3)cc2C1c1ccc(C)cc1C (stereo not drawn)	TK-10 renal	growth	%	44.8
N#Cc1c(-c2cccs2)cc(-c2cnccn2)nc1SCC(=O)Nc1ccc(Br)cc1	TK-10 renal	growth	%	83
Cc1ccc2sc3c(c2c1)OC(N)=C(C#N)C3c1ccc(Cl)cc1 (stereo not drawn)	TK-10 renal	growth	%	97.3
O=C(O)c1ccc(-n2cc(CNc3cc(F)c(F)c(F)c3)c(-c3cccc(F)c3)n2)cc1	TK-10 renal	growth	%	128
CCO/C=N/C1=C(C#N)C(c2ccc(OC)cc2)c2sc3c(CC)cccc3c2O1 (stereo not drawn)	TK-10 renal	growth	%	69.3
Cc1ccc(-n2cc(/C=N/NC(=O)c3nc(N)n[nH]3)c(-c3ccc(S(C)(=O)=O)cc3)n2)cc1	TK-10 renal	growth	%	119
O=C(c1ccc(O)c(C(=O)N2Cc3ccc(OCCC[P+](c4ccccc4)(c4ccccc4)c4ccccc4)cc3C2)c1)N1Cc2cccc(F)c2C1	TK-10 renal	growth	%	100
Oc1ccc(CSc2nnc(-c3ccc(Cl)cc3)n2-c2ccccc2)c2cccnc12	TK-10 renal	growth	%	28.2
CNC(=O)c1c(NC(=O)c2ccccc2C(F)(F)F)sc2c1CCC(=O)C2	TK-10 renal	growth	%	26.2
COc1cc(Cn2cc3c(c2)-c2onc(CN4CCCC4)c2CC3)cc(OC)c1OC	TK-10 renal	growth	%	111
Cc1ccc2c(c1)Oc1nc(N)c(C#N)c(N)c1C2Sc1ccc(F)cc1 (stereo not drawn)	TK-10 renal	growth	%	-98.8
O=C(Cn1c(-c2ccccc2)nc2cc(Cl)c(Cl)cc21)N=Nc1c(O)[nH]c2ccc(Cl)cc12	TK-10 renal	growth	%	104
O=C(CN1CCN(c2cc(=O)n(-c3ccccc3)c3ccccc23)CC1)Nc1ccc(F)cc1	TK-10 renal	growth	%	73.1
CC(C)c1ccc(NCc2cn(-c3ccc(C(=O)O)cc3)nc2-c2cc(C(F)(F)F)cc(C(F)(F)F)c2)cc1	TK-10 renal	growth	%	118
NC(N)=Nc1ccc(Oc2cccc(NC(N)=Nc3ccc(I)cc3F)c2)cn1	TK-10 renal	growth	%	71.3
Cc1nn(-c2ccccc2)c2ncnc(N/N=C/c3ccccc3)c12	TK-10 renal	growth	%	113
O=C(c1ccc(Cl)cc1)C1[C@H](c2ccc(Cl)cc2)[C@@H](c2ccccc2)NC12C(=O)Nc1ccccc12 (stereo partly drawn)	TK-10 renal	growth	%	78.8
C[C@@H](Nc1c(C#N)cnc2ccc(-c3cnc(Cl)c(NS(C)(=O)=O)c3)cc12)c1ccccc1	TK-10 renal	growth	%	-17.9
CCn1c(SCC(=O)Nc2cccc(C(=O)/C=C/c3ccccc3Cl)c2)nc2ccccc2c1=O	TK-10 renal	growth	%	125
COc1cc2nc(Cl)nc(Nc3cccc(C4=Nc5c(N)nc(N)nc5NC(c5ccc6c(c5)OCO6)C4)c3)c2cc1OC (stereo not drawn)	TK-10 renal	growth	%	113
CCCCCCCn1cc2c(NCCc3ccccc3)ncnc2n1	TK-10 renal	growth	%	119
COc1c(N2CC3CCCNC3C2)c(F)cc2c(=O)c(C(=O)N/N=C/c3c[nH]c4ccccc34)cn(C3CC3)c12 (stereo not drawn)	TK-10 renal	growth	%	137
C#CCNC1CCC(c2csc(C#C)n2)=C1C (stereo not drawn)	TK-10 renal	growth	%	130
N=c1c2cc(-c3ccccc3)oc2ncn1/N=C/c1ccc(Br)cc1	TK-10 renal	growth	%	111
NS(=O)(=O)c1ccc(Nc2nc(N/N=C/c3ccccn3)nc(Nc3ccccc3)n2)cc1	TK-10 renal	growth	%	2.56
O=C(CN1CCN(c2cc(=O)[nH]c3ccc(F)cc23)CC1)Nc1ccc(Cl)cc1	TK-10 renal	growth	%	62.2
